Target: T1, human IL-23 (human, UniProt P29460 23-328; Q9NPF7 20-189)
T1 construct: Secreted from Sf9 cells for the crystal structure; One molecule is used for all three; also called Interleukin-23
T1 sequence (looked up) 1: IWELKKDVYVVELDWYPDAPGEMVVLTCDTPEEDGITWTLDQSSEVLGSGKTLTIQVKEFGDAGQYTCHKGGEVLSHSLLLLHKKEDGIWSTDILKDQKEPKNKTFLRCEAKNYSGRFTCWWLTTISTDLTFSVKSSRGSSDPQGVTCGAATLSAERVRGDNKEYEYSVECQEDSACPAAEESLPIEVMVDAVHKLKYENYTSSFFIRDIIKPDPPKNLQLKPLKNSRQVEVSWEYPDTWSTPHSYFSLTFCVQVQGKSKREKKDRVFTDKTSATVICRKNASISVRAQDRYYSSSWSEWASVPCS
T1 sequence (looked up) 2: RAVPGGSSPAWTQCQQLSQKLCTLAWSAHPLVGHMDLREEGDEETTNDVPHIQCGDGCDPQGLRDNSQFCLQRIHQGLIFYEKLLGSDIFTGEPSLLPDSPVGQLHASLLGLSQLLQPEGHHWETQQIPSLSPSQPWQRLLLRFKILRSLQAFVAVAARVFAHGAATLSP
Assay: ratio of competition ELISA IC50, parent/mutant
METRIC NAME: Activity (parent/mutant) (ratio)

* Adnectin 2 P87→A (designed binder) MGVSDVPRDLEVVAATPTSLLISWEHDYPYRRYYRITYGETGGNSPVQEFTVPKDVDTATISGLKPGVDYTITVYAVTSSYKYDMQYSAISINYRTEIDKPSQHHHHHH | 0.1
* Adnectin 2 Y28→A (designed binder) MGVSDVPRDLEVVAATPTSLLISWEHDYPARRYYRITYGETGGNSPVQEFTVPKDVDTATISGLKPGVDYTITVYAVTSSYKYDMQYSPISINYRTEIDKPSQHHHHHH | 0.08
* Adnectin 2 T35→D (designed binder) MGVSDVPRDLEVVAATPTSLLISWEHDYPYRRYYRIDYGETGGNSPVQEFTVPKDVDTATISGLKPGVDYTITVYAVTSSYKYDMQYSPISINYRTEIDKPSQHHHHHH | 0.02
* Adnectin 2 T35→Q (designed binder) MGVSDVPRDLEVVAATPTSLLISWEHDYPYRRYYRIQYGETGGNSPVQEFTVPKDVDTATISGLKPGVDYTITVYAVTSSYKYDMQYSPISINYRTEIDKPSQHHHHHH | 1

P = Adnectin 2 V75→Q (designed binder) MGVSDVPRDLEVVAATPTSLLISWEHDYPYRRYYRITYGETGGNSPVQEFTVPKDVDTATISGLKPGVDYTITVYAQTSSYKYDMQYSPISINYRTEIDKPSQHHHHHH
Q = Adnectin 2 (designed binder, also called anti-IL-23 Adnectin; ATI-000929) MGVSDVPRDLEVVAATPTSLLISWEHDYPYRRYYRITYGETGGNSPVQEFTVPKDVDTATISGLKPGVDYTITVYAVTSSYKYDMQYSPISINYRTEIDKPSQHHHHHH
R = Adnectin 2 V45→Q (designed binder) MGVSDVPRDLEVVAATPTSLLISWEHDYPYRRYYRITYGETGGNSPQQEFTVPKDVDTATISGLKPGVDYTITVYAVTSSYKYDMQYSPISINYRTEIDKPSQHHHHHH
S = Adnectin 2 Y73→A (designed binder) MGVSDVPRDLEVVAATPTSLLISWEHDYPYRRYYRITYGETGGNSPVQEFTVPKDVDTATISGLKPGVDYTITVAAVTSSYKYDMQYSPISINYRTEIDKPSQHHHHHH
Query :: Rank the 4 binders: largest Activity (parent/mutant) first, smallest last. // rank by listing labels in the order requested
Result :: R, S, Q, P

I = Adnectin 2 V45→D (designed binder) MGVSDVPRDLEVVAATPTSLLISWEHDYPYRRYYRITYGETGGNSPDQEFTVPKDVDTATISGLKPGVDYTITVYAVTSSYKYDMQYSPISINYRTEIDKPSQHHHHHH
II = Adnectin 2 Y73→Q (designed binder) MGVSDVPRDLEVVAATPTSLLISWEHDYPYRRYYRITYGETGGNSPVQEFTVPKDVDTATISGLKPGVDYTITVQAVTSSYKYDMQYSPISINYRTEIDKPSQHHHHHH
Query :: Out of I and II , name the one with the higher Activity (parent/mutant). # reply format: chosen label
Result :: II

1 = Adnectin 2 V45→E (designed binder) MGVSDVPRDLEVVAATPTSLLISWEHDYPYRRYYRITYGETGGNSPEQEFTVPKDVDTATISGLKPGVDYTITVYAVTSSYKYDMQYSPISINYRTEIDKPSQHHHHHH
2 = Adnectin 2 V75→Y (designed binder) MGVSDVPRDLEVVAATPTSLLISWEHDYPYRRYYRITYGETGGNSPVQEFTVPKDVDTATISGLKPGVDYTITVYAYTSSYKYDMQYSPISINYRTEIDKPSQHHHHHH
3 = Adnectin 2 Y81→A (designed binder) MGVSDVPRDLEVVAATPTSLLISWEHDYPYRRYYRITYGETGGNSPVQEFTVPKDVDTATISGLKPGVDYTITVYAVTSSYKADMQYSPISINYRTEIDKPSQHHHHHH
4 = Adnectin 2 Y73→R (designed binder) MGVSDVPRDLEVVAATPTSLLISWEHDYPYRRYYRITYGETGGNSPVQEFTVPKDVDTATISGLKPGVDYTITVRAVTSSYKYDMQYSPISINYRTEIDKPSQHHHHHH
Query :: Rank the 4 binders: largest Activity (parent/mutant) first, smallest last. // rank by listing labels in the order requested
Result :: 1, 4, 2, 3
